# Test system: Jurkat
# ASSAY METHOD TEXT: Cell cycle arrest in human Jurkat cells assessed as accumulation in G1 phase at 1 uM irradiated with 25 J/cm'2 after 24 hrs by flow cytometry
READOUT NAME: Activity (%)

smiles_notation=O=c1ccc2ccc3occc3c2o1 readout_name=Activity value_unit=% recorded_number=12.3
smiles_notation=CCOC(=O)c1cc2c(n1Cc1ccccc1)-c1[nH]c(=O)c(S(=O)(=O)c3ccccc3)cc1CC2 readout_name=Activity value_unit=% recorded_number=16.1
smiles_notation=CCOC(=O)c1cc2c(n1Cc1ccc(OC)cc1)-c1[nH]c(=O)c(S(=O)(=O)c3ccccc3)cc1CC2 readout_name=Activity value_unit=% recorded_number=12.6
smiles_notation=CCOC(=O)c1cc2c(n1C)-c1[nH]c(=O)c(S(=O)(=O)c3ccccc3)cc1CC2 readout_name=Activity value_unit=% recorded_number=16.1

----------
# Tested on: Jurkat
# ASSAY METHOD TEXT: Phototoxicity against human Jurkat cells irradiated with 2.5 J/cm'2 after 72 hrs by MTT assay
# Type: functional, cell-based
# DETAILS: light or radiation study
pIC50: −log10 of the molar value.
READOUT NAME: pIC50

smiles_notation=COc1ccc(Cn2ccc3c2-c2[nH]c(=O)c(S(=O)(=O)c4ccccc4)cc2CC3)cc1 operator== recorded_number=5.80
smiles_notation=O=c1[nH]c2c(cc1S(=O)(=O)c1ccccc1)CCc1cc[nH]c1-2 operator=< recorded_number=4.70
smiles_notation=O=c1[nH]c2c(cc1S(=O)(=O)c1ccccc1)CCc1ccn(S(=O)(=O)c3ccccc3)c1-2 operator=< recorded_number=4.70
smiles_notation=CCOC(=O)c1cc2c(n1Cc1ccc(OC)cc1)-c1[nH]c(=O)c(S(=O)(=O)c3ccccc3)cc1CC2 operator== recorded_number=6.10
smiles_notation=CCOC(=O)c1cc2c(n1C)-c1[nH]c(=O)c(S(=O)(=O)c3ccccc3)cc1CC2 operator== recorded_number=6.15
smiles_notation=O=c1ccc2ccc3occc3c2o1 operator== recorded_number=6.00
smiles_notation=Cn1ccc2c1-c1[nH]c(=O)c(S(=O)(=O)c3ccccc3)cc1CC2 operator=< recorded_number=4.70
smiles_notation=CCOC(=O)c1cc2c(n1Cc1ccccc1)-c1[nH]c(=O)c(S(=O)(=O)c3ccccc3)cc1CC2 operator== recorded_number=6.10
smiles_notation=O=c1[nH]c2c(cc1S(=O)(=O)c1ccccc1)CCc1ccn(-c3ccccc3)c1-2 operator=< recorded_number=4.70

----------
# System: Nucleic Acid
# ASSAY METHOD TEXT: Binding affinity to salmon testes DNA assessed as intercalation by linear dichroism experiment
# Assay type: nucleic-acid assay
# DETAILS: Salmonidae
Calls of active or inactive are those of the source. The calls are words filed in the database; no cut-off is given here.
READOUT NAME: Activity

smiles_notation=CCOC(=O)c1cc2c(n1Cc1ccc(OC)cc1)-c1[nH]c(=O)c(S(=O)(=O)c3ccccc3)cc1CC2 readout_name=Activity result=inactive
smiles_notation=CCOC(=O)c1cc2c(n1Cc1ccccc1)-c1[nH]c(=O)c(S(=O)(=O)c3ccccc3)cc1CC2 readout_name=Activity result=inactive
smiles_notation=CCOC(=O)c1cc2c(n1C)-c1[nH]c(=O)c(S(=O)(=O)c3ccccc3)cc1CC2 readout_name=Activity result=inactive

----------
Parameter: IC50. Scope: all listed entries.
# ASSAY METHOD TEXT: Phototoxicity against human sNCTC-2544 cells irradiated with 2.5 J/cm'2 after 72 hrs by MTT assay
# Format: functional, cell-based
# DETAILS: NCTC-2544, light or radiation study
READOUT NAME: IC50 (µM)

smiles_notation=N#Cc1cc2c([nH]c1=O)-c1c(ccn1S(=O)(=O)c1ccccc1)CC2 readout_name=IC50 operator=> recorded_number=20
smiles_notation=Cn1ccc2c1-c1[nH]c(=O)c(S(=O)(=O)c3ccccc3)cc1CC2 readout_name=IC50 operator=> recorded_number=20
smiles_notation=Cc1ccc(Cn2ccc3c2-c2[nH]c(=O)c(S(=O)(=O)c4ccccc4)cc2CC3)cc1 readout_name=IC50 operator== recorded_number=3.3
smiles_notation=O=c1[nH]c2c(cc1S(=O)(=O)c1ccccc1)CCc1ccn(S(=O)(=O)c3ccccc3)c1-2 readout_name=IC50 operator=> recorded_number=20
smiles_notation=CCOC(=O)c1cc2c(n1Cc1ccc(OC)cc1)-c1[nH]c(=O)c(S(=O)(=O)c3ccccc3)cc1CC2 readout_name=IC50 operator== recorded_number=1.9
smiles_notation=O=c1ccc2ccc3occc3c2o1 readout_name=IC50 operator== recorded_number=4.2
smiles_notation=O=c1[nH]c2c(cc1S(=O)(=O)c1ccccc1)CCc1ccn(-c3ccccc3)c1-2 readout_name=IC50 operator=> recorded_number=20
smiles_notation=CCOC(=O)c1cc2c(n1C)-c1[nH]c(=O)c(S(=O)(=O)c3ccccc3)cc1CC2 readout_name=IC50 operator== recorded_number=1.2
smiles_notation=O=c1[nH]c2c(cc1S(=O)(=O)c1ccccc1)CCc1ccn(Cc3ccccc3)c1-2 readout_name=IC50 operator== recorded_number=7.5
smiles_notation=COc1ccc(Cn2ccc3c2-c2[nH]c(=O)c(S(=O)(=O)c4ccccc4)cc2CC3)cc1 readout_name=IC50 operator== recorded_number=4.3
smiles_notation=O=c1[nH]c2c(cc1S(=O)(=O)c1ccccc1)CCc1cc[nH]c1-2 readout_name=IC50 operator=> recorded_number=20
smiles_notation=CCOC(=O)c1cc2c([nH]1)-c1[nH]c(=O)c(S(=O)(=O)c3ccccc3)cc1CC2 readout_name=IC50 operator== recorded_number=9.3
smiles_notation=CCOC(=O)c1cc2c(n1Cc1ccc(C)cc1)-c1[nH]c(=O)c(S(=O)(=O)c3ccccc3)cc1CC2 readout_name=IC50 operator== recorded_number=2.7
smiles_notation=CCOC(=O)c1cc2c(n1Cc1ccccc1)-c1[nH]c(=O)c(S(=O)(=O)c3ccccc3)cc1CC2 readout_name=IC50 operator== recorded_number=1.1

----------
# System: K562
# ASSAY METHOD TEXT: Phototoxicity against human K562 cells irradiated with 3.75 J/cm'2 after 72 hrs by MTT assay
# Type: functional, cell-based
# DETAILS: K562, light or radiation study
READOUT NAME: IC50 (nM)

smiles_notation=CCOC(=O)c1cc2c(n1Cc1ccccc1)-c1[nH]c(=O)c(S(=O)(=O)c3ccccc3)cc1CC2 operator== recorded_number=600
smiles_notation=O=c1[nH]c2c(cc1S(=O)(=O)c1ccccc1)CCc1ccn(Cc3ccccc3)c1-2 operator== recorded_number=3300
smiles_notation=Cn1ccc2c1-c1[nH]c(=O)c(S(=O)(=O)c3ccccc3)cc1CC2 operator=> recorded_number=20000
smiles_notation=O=c1[nH]c2c(cc1S(=O)(=O)c1ccccc1)CCc1ccn(-c3ccccc3)c1-2 operator=> recorded_number=20000
smiles_notation=O=c1[nH]c2c(cc1S(=O)(=O)c1ccccc1)CCc1cc[nH]c1-2 operator=> recorded_number=20000
smiles_notation=COc1ccc(Cn2ccc3c2-c2[nH]c(=O)c(S(=O)(=O)c4ccccc4)cc2CC3)cc1 operator== recorded_number=2500
smiles_notation=N#Cc1cc2c([nH]c1=O)-c1c(ccn1S(=O)(=O)c1ccccc1)CC2 operator=> recorded_number=20000
smiles_notation=O=c1[nH]c2c(cc1S(=O)(=O)c1ccccc1)CCc1ccn(S(=O)(=O)c3ccccc3)c1-2 operator=> recorded_number=20000
smiles_notation=CCOC(=O)c1cc2c(n1C)-c1[nH]c(=O)c(S(=O)(=O)c3ccccc3)cc1CC2 operator== recorded_number=900
smiles_notation=O=c1ccc2ccc3occc3c2o1 operator== recorded_number=1000

----------
# Tested on: K562
# ASSAY METHOD TEXT: Phototoxicity against human K562 cells irradiated with 2.5 J/cm'2 after 72 hrs by MTT assay
# Format: functional, cell-based
# DETAILS: K562, light or radiation study
pIC50: −log10 of the molar value.
READOUT NAME: pIC50

molecule=CCOC(=O)c1cc2c(n1Cc1ccc(C)cc1)-c1[nH]c(=O)c(S(=O)(=O)c3ccccc3)cc1CC2 readout_name=pIC50 operator== recorded_number=5.89
molecule=COc1ccc(Cn2ccc3c2-c2[nH]c(=O)c(S(=O)(=O)c4ccccc4)cc2CC3)cc1 readout_name=pIC50 operator== recorded_number=5.51
molecule=O=c1[nH]c2c(cc1S(=O)(=O)c1ccccc1)CCc1ccn(-c3ccccc3)c1-2 readout_name=pIC50 operator=< recorded_number=4.70
molecule=Cn1ccc2c1-c1[nH]c(=O)c(S(=O)(=O)c3ccccc3)cc1CC2 readout_name=pIC50 operator=< recorded_number=4.70
molecule=N#Cc1cc2c([nH]c1=O)-c1c(ccn1S(=O)(=O)c1ccccc1)CC2 readout_name=pIC50 operator=< recorded_number=4.70
molecule=Cc1ccc(Cn2ccc3c2-c2[nH]c(=O)c(S(=O)(=O)c4ccccc4)cc2CC3)cc1 readout_name=pIC50 operator== recorded_number=5.57
molecule=O=c1[nH]c2c(cc1S(=O)(=O)c1ccccc1)CCc1cc[nH]c1-2 readout_name=pIC50 operator=< recorded_number=4.70
molecule=CCOC(=O)c1cc2c([nH]1)-c1[nH]c(=O)c(S(=O)(=O)c3ccccc3)cc1CC2 readout_name=pIC50 operator== recorded_number=5.21
molecule=CCOC(=O)c1cc2c(n1Cc1ccc(OC)cc1)-c1[nH]c(=O)c(S(=O)(=O)c3ccccc3)cc1CC2 readout_name=pIC50 operator== recorded_number=6.00
molecule="O=c1ccc2ccc3occc3c2o1 [ANGELICIN]" readout_name=pIC50 operator== recorded_number=5.92
molecule=CCOC(=O)c1cc2c(n1C)-c1[nH]c(=O)c(S(=O)(=O)c3ccccc3)cc1CC2 readout_name=pIC50 operator== recorded_number=6.00
molecule=O=c1[nH]c2c(cc1S(=O)(=O)c1ccccc1)CCc1ccn(Cc3ccccc3)c1-2 readout_name=pIC50 operator== recorded_number=5.32
molecule=CCOC(=O)c1cc2c(n1Cc1ccccc1)-c1[nH]c(=O)c(S(=O)(=O)c3ccccc3)cc1CC2 readout_name=pIC50 operator== recorded_number=6.05
molecule=O=c1[nH]c2c(cc1S(=O)(=O)c1ccccc1)CCc1ccn(S(=O)(=O)c3ccccc3)c1-2 readout_name=pIC50 operator=< recorded_number=4.70
